molecular target: Virion infectivity factor (Human immunodeficiency virus type 1 group M subtype B (isolate BH10)) + Virion infectivity factor (Human immunodeficiency virus type 1 group M subtype B (isolate BRU/LAI)) + Virion infectivity factor (Human immunodeficiency virus type 1 group M subtype B (isolate PCV12)) + Virion infectivity factor (Human immunodeficiency virus type 1 group M subtype B (isolate HXB2)) + DNA dC->dU-editing enzyme APOBEC-3G (Homo sapiens) (UniProt P69720+P69721+P69722+P69723+Q9HC16); experiment: HIV-1 Vif–A3G interaction blockers – biochemical, TR-FRET, GST-Vif 1-94, biotin-A3G peptide, dose response retest, primary screen (AID 1117319); details: TR-FRET GST-Vif / biotin-A3G peptide binding;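 also: Vif residues 1-94 fused to GST binding biotinylated APOBEC3G peptide 110-148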
Results filed as inconclusive are left out.
Here the recorded IC50 is given for each entry.

// below: answered molecules
CC(/C=N/n1c(-c2ccncc2)n[nH]c1=S)=C\c1ccco1 = 5.1 µM
COc1ccc(Nc2ccc(OC)cc2)cc1 = 6.72 µM
O=C1c2cccnc2C(Nc2ccccc2)N1Cc1ccco1 (centres undefined) = 22.9 µM
Cc1cc(/C=C2\C(=O)NC(=O)N(Cc3ccco3)C2=O)c(C)n1-c1ccc(O)cc1 = 5.88 µM
Cc1cc(C(=O)NNC(=O)/C=C/c2ccco2)c(C)o1 = 13.3 µM

In plain terms, O=C(NNC(=O)c1ccccc1F)c1cccc(-n2cccc2)c1 has a documented IC50 of 8.55 µM

CCCn1cnc2cc(NCc3ccccn3)ccc21 has a reported IC50 of 28.6 µM

For reference, reported IC50 for O=C(/C=C/Nc1ccccc1Br)c1ccccn1 stands at 41.5 µM

Please fill in: IC50 reported for COc1cc(OC)c2c(c1O)OC(c1ccccc1)CC2=O (centres undefined) = 4.82 µM

###

Examples of compounds with documented IC50 follow.
target: Virion infectivity factor (Human immunodeficiency virus type 1 group M subtype B (isolate BH10)) + Virion infectivity factor (Human immunodeficiency virus type 1 group M subtype B (isolate BRU/LAI)) + Virion infectivity factor (Human immunodeficiency virus type 1 group M subtype B (isolate PCV12)) + Virion infectivity factor (Human immunodeficiency virus type 1 group M subtype B (isolate HXB2)) + DNA dC->dU-editing enzyme APOBEC-3G (Homo sapiens) (UniProt P69720+P69721+P69722+P69723+Q9HC16); experiment: HIV-1 Vif–A3G interaction blockers – biochemical, TR-FRET, GST-Vif 1-94, biotin-A3G peptide, dose response retest, primary screen (AID 1117319); conditions: TR-FRET GST-Vif / biotin-A3G peptide binding;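 also: Vif residues 1-94 fused to GST binding biotinylated APOBEC3G peptide 110-148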
Results filed as inconclusive are left out.

CN(C)[C@@H]1C(=O)C(C(N)=O)=C(O)[C@@]2(O)C(=O)C3=C(O)c4c(O)ccc(Cl)c4[C@@](C)(O)C3C[C@@H]12 (some centres not stated) = 7.02 µM
CC(C)CNC1=CC(=O)CC(c2ccco2)C1 (configuration not stated) = 3.75 µM
CC(=O)OC(C)C1C2=C(C(=O)CC1(C)O)C(=O)c1c(ccc(-c3ccc4c(c3O)C(=O)C3=C(C4=O)C(C(C)OC(C)=O)C(C)(O)CC3=O)c1O)C2=O (configuration not stated) = 0.73 µM
Cc1cc(-c2cc(-c3ccc(Cl)cc3)nc(N)c2C#N)co1 = 12.4 µM
C[n+]1cccc2cccc([O-])c21 = 1.4 µM

Note: attention shifts to another entry.
Record CCSC1=C(C#N)C(c2cccs2)C(C(=O)OC)=C(C)N1 (configuration not stated) , field IC50: 75.5 µM

FYI, the data here is from PubChem BioAssay AID1117319.
